assay name: Aqueous solubility of compound
Format: physicochemical
setup conditions: buffer
measurement label: solubility (µg/mL)

Worked cases, solubility given:
O=S1(=O)N=C(c2nc(Cc3ccc(F)cc3)c3ccccc3c2O)c2cccc(-c3cccnc3)c21; 3
CC(=O)Nc1cccc(-c2cccc3c2S(=O)(=O)N=C3c2nc(Cc3ccc(F)cc3)c3ccccc3c2O)c1; 17
O=c1ccc(-c2cccc3c2S(=O)(=O)N=C3c2nc(Cc3ccc(F)cc3)c3ccccc3c2O)c[nH]1; 7
O=S1(=O)N=C(c2nc(Cc3ccc(F)cc3)c3ccccc3c2O)c2cccc(-c3ccccc3)c21; 41
COc1cccc2c1S(=O)(=O)N=C2c1nc(Cc2ccc(F)cc2)c2ccccc2c1O; 40

A: O=S1(=O)N=C(c2nc(Cc3ccc(F)cc3)c3ccccc3c2O)c2cccc(Cl)c21
B: O=S1(=O)N=C(c2nc(Cc3ccc(F)cc3)c3ccccc3c2O)c2cccc(-c3cccc(O)c3)c21
C: O=c1cccc(-c2cccc3c2S(=O)(=O)N=C3c2nc(Cc3ccc(F)cc3)c3ccccc3c2O)[nH]1
Q) Rank ascending by solubility. Output spec: labels arranged per the requested ranking.
A) A, B, C

1: O=S1(=O)N=C(c2nc(Cc3ccc(F)cc3)c3ccccc3c2O)c2ccccc21
2: O=S1(=O)N=C(c2nc(Cc3ccc(F)cc3)c3ccccc3c2O)c2cccc(-c3cncnc3)c21
Q) // compare measured solubility between 1 and 2 ; output the lower one Identify your pick by its label.
A) 2
(2: 9 µg/mL, 1: 16 µg/mL)
